- system.under.test: recombinant human KLK5 (human) (UniProt Q9Y337)
- Sequence (Q9Y337 67-293): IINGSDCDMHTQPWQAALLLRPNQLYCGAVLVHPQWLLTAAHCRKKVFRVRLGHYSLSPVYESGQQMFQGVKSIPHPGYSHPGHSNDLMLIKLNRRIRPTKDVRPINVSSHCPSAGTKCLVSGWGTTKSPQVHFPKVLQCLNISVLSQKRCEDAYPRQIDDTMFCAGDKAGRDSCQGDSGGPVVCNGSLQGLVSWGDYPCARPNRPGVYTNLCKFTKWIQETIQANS
- assay.info: SPR BIAcore T200, antibody captured by anti-human Fc, human KLK5 as analyte, 37 C
endpoint.label: kon
Show the value, then the unit it is measured in.

Which kon is reported for this binder? 10C5 (antibody, V domains shown) VH: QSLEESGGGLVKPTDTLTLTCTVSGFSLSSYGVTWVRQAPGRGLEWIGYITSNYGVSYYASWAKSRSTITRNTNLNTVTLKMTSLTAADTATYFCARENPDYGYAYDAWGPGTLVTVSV VL: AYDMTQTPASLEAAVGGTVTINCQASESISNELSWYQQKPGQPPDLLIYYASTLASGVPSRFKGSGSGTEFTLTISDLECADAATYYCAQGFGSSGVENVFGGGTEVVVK
1.78e+07 M⁻¹ s⁻¹

Next binder: hu3-3F5.L5H25 (antibody, human IgG1, V domains shown) VH: EVQLLESGGGLVQPGGSLRLSCAASGFSLNDYGVSWVRQAPGKGLEWVGAIGSSGVAWYANFAKGRFTISRDTSKNTVYLQMNSLRAEDTAVYYCARDRDYGYRADDATSGMDLWGRGTLVTVSS VL: AIRMTQSPSSFSASTGDRVTITCQASESIGNALAWYQQKPGKAPKLLIYDASDLASGVPSRFSGSGSGTDFTLTISSLQPEDFATYYCQQGDSHNNVDNIFGGGTKVEIK
2.57e+07 M⁻¹ s⁻¹

Same thing, different binder: 9H5 (antibody, V domains shown) VH: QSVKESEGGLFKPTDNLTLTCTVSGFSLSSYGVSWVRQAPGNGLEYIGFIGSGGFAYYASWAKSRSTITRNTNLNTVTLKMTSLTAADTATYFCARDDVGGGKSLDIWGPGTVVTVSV VL: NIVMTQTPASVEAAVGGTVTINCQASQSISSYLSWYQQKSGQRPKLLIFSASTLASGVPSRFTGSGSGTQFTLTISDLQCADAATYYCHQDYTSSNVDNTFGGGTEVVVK
705000 M⁻¹ s⁻¹

Item: 3-3F5 (antibody, V domains shown) VH: QSVKESEGGLFKPTDTLTLTCTVSGFSLNDYGVSWVRQAPGNGLEWIGAIGSSGVAWYANWAKGRSTITRNTNLNTVTLKMASLTAADTATYFCARDRDYGYRADDATSGMDLWGPGTLVTVSS VL: AYDMTQTPASVEAAVGGTVTIKCQASESIGNALAWYQQKPGQPPKLLIYDASDLASGVPSRFKGSGSGTQFTLTISGVECADAATYYCQQGDSHNNVDNIFGGGTEVVVK
2.93e+07 M⁻¹ s⁻¹
